- experimentalTarget: Integrin alpha-4/beta-7 (Homo sapiens, UniProt P13612+P26010)
- Sequence (P13612 whole entry): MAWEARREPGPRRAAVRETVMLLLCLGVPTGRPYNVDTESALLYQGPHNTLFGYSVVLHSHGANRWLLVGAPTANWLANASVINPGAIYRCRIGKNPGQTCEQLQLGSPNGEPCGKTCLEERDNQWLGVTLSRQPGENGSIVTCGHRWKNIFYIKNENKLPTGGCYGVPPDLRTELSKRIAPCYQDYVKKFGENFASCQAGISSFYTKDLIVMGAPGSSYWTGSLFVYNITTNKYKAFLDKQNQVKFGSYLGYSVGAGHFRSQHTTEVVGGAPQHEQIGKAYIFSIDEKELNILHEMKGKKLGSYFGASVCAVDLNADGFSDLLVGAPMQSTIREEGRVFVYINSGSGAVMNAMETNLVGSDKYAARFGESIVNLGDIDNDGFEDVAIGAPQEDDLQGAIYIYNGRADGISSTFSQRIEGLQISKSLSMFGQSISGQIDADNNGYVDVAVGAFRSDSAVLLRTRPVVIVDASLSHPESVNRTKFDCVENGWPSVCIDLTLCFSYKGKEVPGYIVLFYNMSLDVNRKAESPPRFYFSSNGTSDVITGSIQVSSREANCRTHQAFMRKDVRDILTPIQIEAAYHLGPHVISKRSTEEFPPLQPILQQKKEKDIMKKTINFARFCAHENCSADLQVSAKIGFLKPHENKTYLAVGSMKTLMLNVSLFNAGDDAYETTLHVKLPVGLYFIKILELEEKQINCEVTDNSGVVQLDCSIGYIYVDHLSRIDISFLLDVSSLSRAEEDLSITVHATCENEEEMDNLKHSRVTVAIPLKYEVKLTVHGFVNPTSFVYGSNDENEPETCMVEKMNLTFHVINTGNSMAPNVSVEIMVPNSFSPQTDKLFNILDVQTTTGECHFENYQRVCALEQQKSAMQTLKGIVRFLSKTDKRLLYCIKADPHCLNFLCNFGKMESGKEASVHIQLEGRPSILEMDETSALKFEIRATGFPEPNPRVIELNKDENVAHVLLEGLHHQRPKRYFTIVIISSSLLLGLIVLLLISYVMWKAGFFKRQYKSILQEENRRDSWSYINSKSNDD
- Sequence (P26010 whole entry): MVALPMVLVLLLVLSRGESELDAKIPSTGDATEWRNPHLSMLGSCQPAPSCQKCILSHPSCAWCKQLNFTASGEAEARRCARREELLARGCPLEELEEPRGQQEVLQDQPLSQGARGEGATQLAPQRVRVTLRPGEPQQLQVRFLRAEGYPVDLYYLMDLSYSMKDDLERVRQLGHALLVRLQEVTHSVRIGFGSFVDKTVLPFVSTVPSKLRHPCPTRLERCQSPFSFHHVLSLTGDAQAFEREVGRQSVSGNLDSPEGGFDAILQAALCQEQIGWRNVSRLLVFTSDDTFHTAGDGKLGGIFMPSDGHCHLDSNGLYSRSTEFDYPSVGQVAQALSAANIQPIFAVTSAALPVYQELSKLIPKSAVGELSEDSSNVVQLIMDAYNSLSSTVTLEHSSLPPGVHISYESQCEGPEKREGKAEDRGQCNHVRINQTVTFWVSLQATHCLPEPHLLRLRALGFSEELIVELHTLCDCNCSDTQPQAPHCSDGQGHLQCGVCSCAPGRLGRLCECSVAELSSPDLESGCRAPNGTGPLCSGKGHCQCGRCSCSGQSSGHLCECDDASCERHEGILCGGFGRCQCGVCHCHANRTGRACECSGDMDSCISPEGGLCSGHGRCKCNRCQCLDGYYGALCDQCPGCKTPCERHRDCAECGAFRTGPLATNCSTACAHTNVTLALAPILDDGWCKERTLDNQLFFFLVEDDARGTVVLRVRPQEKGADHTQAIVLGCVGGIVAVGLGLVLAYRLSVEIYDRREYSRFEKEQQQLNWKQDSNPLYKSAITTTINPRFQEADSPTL
- measurementNotes: Inhibition of alpha4-beta7 antigen with MAdCAM immunoglobulin
- Type: protein-complex assay
Mark Y only for IC50 values smaller than 0.1 µM; exact matches and larger values are N.

Input: Hello, I'm reviewing records and need to know if IC50 of `COc1ccccc1-c1ccc(C[C@H](NC(=O)[C@@]2(c3ccc(F)cc3)CCCO2)C(=O)O)cc1` is below 0.1 µM. Could you check?
Output: Y

Input: Hello, I'm reviewing records and need to know if IC50 of `CCCC[C@]1(C(=O)N[C@@H](Cc2ccc(-c3c(OC)cccc3OC)cc2)C(=O)O)CCCO1` is below 0.1 µM. Could you check?
Output: Y

Input: Hello, I'm reviewing records and need to know if IC50 of `COc1cccc(OC)c1-c1ccc(C[C@H](NC(=O)[C@@]2(C(C)C)CCCO2)C(=O)O)cc1` is below 0.1 µM. Could you check?
Output: Y

Input: Hello, I'm reviewing records and need to know if IC50 of `COCCCC[C@]1(C(=O)N[C@@H](Cc2ccc(-c3c(OC)cccc3OC)cc2)C(=O)O)CCCO1` is below 0.1 µM. Could you check?
Output: Y

Input: Hello, I'm reviewing records and need to know if IC50 of `COc1ccccc1-c1ccc(C[C@H](NC(=O)[C@@]2(c3cccc(C(F)(F)F)c3)CCCO2)C(=O)O)cc1` is below 0.1 µM. Could you check?
Output: N

Input: Hello, I'm reviewing records and need to know if IC50 of `COc1ccccc1-c1ccc(C[C@H](NC(=O)[C@@]2(c3ccc(C)c(C)c3)CCCO2)C(=O)O)cc1` is below 0.1 µM. Could you check?
Output: N

Input: Hello, I'm reviewing records and need to know if IC50 of `COc1cccc(OC)c1-c1ccc(C[C@H](NC(=O)[C@@]2(C(=O)C(C)C)CCCO2)C(=O)O)cc1` is below 0.1 µM. Could you check?
Output: Y
